The origin of these recorded values is ChEMBL document CHEMBL4765362.

# target_under_test: Histone deacetylase 8 (Homo sapiens, UniProt Q9BY41)
# Sequence (Q9BY41 whole entry): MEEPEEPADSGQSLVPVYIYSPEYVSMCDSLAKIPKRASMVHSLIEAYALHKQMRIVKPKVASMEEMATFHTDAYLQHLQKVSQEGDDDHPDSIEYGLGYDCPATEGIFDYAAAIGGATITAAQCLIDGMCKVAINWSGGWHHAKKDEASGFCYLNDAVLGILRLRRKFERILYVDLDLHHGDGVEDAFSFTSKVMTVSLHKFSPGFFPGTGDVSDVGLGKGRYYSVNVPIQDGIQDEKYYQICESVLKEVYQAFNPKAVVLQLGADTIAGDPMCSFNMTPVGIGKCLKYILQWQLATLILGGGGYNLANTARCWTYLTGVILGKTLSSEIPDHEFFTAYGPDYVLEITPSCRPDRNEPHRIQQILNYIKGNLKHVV
# protocol: Inhibition of recombinant human C-terminal His-tagged HDAC8 expressed in baculovirus infected sf9 cells using carboxyfluorescein (FAM)-labeled acetylated peptide substrate by microfluidic capillary electrophoresis
pIC50: −log10 of the molar value.
assay_metric: pIC50

Q: Find the recorded pIC50 belonging to "CC(=O)Nc1ccc(C(=O)Nc2ccc(F)cc2N)cc1" and report it.
A: < 4.52

----------
# target_under_test: Histone deacetylase 5 (Homo sapiens, UniProt Q9UQL6)
# Sequence (Q9UQL6 whole entry): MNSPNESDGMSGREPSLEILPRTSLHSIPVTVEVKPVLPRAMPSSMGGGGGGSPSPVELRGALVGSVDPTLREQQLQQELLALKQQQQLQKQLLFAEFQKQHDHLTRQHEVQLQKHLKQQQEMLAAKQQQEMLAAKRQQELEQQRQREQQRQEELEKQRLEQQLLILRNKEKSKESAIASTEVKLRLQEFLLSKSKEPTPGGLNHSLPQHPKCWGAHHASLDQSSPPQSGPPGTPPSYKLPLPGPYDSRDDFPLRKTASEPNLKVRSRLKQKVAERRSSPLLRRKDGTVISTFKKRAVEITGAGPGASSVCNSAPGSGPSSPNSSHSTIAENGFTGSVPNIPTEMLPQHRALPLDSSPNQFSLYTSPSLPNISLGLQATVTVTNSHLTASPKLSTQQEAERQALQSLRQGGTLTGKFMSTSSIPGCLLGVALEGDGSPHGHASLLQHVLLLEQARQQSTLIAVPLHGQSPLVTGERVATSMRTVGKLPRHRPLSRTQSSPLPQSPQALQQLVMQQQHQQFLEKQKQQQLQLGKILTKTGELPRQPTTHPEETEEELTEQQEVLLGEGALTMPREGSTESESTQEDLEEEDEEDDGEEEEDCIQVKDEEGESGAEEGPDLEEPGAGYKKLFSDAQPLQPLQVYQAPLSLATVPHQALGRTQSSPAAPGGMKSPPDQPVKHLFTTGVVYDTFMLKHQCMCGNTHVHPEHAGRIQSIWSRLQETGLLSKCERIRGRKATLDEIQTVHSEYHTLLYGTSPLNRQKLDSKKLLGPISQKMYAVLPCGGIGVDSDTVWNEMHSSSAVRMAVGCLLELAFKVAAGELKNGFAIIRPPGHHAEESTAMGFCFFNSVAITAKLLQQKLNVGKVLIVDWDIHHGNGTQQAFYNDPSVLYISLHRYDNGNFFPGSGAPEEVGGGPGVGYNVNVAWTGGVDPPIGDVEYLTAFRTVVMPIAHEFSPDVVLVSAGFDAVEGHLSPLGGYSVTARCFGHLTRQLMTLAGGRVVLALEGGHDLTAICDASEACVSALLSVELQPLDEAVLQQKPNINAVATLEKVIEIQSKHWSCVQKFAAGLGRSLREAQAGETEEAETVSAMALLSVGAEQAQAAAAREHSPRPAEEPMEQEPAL
# protocol: Inhibition of HDAC5 (unknown origin) using HDAC class IIa substrate (trifluoroacetyl-lysine-AMC) as substrate by fluorescent method
assay_metric: IC50

Q: Find the recorded IC50 belonging to "Cn1cc(-c2ccc(S(=O)(=O)n3ccc(/C=C/C(=O)Nc4ccccc4N)c3)cc2)cn1" and report it.
A: > 10 µM
